Biological target: PRMT1 (Homo sapiens)
Sequence (Q99873 whole entry): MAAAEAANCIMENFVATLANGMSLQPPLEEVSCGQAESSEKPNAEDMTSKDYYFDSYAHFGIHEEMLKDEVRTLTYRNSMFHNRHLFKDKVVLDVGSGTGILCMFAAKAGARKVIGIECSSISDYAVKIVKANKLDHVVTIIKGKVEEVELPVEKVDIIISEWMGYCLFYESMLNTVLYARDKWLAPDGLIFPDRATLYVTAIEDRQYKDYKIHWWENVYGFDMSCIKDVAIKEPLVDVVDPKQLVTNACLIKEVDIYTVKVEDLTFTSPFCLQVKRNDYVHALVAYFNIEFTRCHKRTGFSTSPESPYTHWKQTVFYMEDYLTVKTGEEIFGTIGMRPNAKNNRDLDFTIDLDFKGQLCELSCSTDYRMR
Counter-ions that a name gives are not always drawn.
Quantity Measured: IC50

For the record N[C@@H](CCCN(CCI)C[C@H]1O[C@@H](n2cnc3c(NCc4ccccc4)ncnc32)[C@@H](O)C1O)C(=O)O (stereo partly shown) [Compound 6, hydrochloride] , what value of IC50 is listed for PRMT1 (Homo sapiens)?
> 100 µM

* * *

Biological target: CARM1 (Homo sapiens)
Quantity Measured: Ki (µM)
Dear colleague, please return just the value in µM, with no unit written.

Entry under review: N[C@@H](CCSC[C@H]1O[C@@H](n2cnc3c(NCc4ccccc4)ncnc32)[C@H](O)[C@@H]1O)C(=O)O [Compound 2, S-(N^6-Benzyl-adenosyl)-L-homocysteine] . Reported Ki?
18

* * *

Molecular target: CARM1 (Homo sapiens)
Sequence (Q86X55 1-608): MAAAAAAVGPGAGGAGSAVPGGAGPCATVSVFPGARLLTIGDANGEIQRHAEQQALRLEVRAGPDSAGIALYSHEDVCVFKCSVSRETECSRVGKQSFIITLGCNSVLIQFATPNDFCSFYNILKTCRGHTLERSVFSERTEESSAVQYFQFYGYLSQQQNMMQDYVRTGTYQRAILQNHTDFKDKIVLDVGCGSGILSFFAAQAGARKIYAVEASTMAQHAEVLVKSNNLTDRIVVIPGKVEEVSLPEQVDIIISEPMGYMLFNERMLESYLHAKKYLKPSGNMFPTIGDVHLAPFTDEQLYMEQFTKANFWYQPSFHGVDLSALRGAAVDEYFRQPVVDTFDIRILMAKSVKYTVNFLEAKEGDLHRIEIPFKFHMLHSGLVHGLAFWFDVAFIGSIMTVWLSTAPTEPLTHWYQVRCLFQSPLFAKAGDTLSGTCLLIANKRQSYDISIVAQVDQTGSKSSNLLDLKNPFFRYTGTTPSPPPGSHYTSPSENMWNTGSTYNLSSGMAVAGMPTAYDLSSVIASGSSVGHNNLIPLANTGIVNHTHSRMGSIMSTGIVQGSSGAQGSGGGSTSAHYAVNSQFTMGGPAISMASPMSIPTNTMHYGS
Counter-ions that a name gives are not always drawn.
Quantity Measured: IC50 (µM)
Numeric only. Scale: µM

Quick check: IC50 on CARM1 (Homo sapiens), item Nc1ncnc2c1ncn2[C@@H]1O[C@H](CN(CCI)CCC[C@H](N)C(=O)O)C(O)[C@@H]1O (stereo partly shown) [Compound 4, hydrochloride] ?
1.1

Now the compound Nc1ncnc2c1ncn2[C@@H]1O[C@H](CN(CCI)CC[C@H](N)C(=O)O)C(O)[C@@H]1O (stereo partly shown) [Compound 3, hydrochloride]
46.4

* * *

So I've got a bunch of compounds here, and I need their pIC50 values.
Molecular target: UniProtKB Q9Z148
Sequence (Q9Z148 1-1263): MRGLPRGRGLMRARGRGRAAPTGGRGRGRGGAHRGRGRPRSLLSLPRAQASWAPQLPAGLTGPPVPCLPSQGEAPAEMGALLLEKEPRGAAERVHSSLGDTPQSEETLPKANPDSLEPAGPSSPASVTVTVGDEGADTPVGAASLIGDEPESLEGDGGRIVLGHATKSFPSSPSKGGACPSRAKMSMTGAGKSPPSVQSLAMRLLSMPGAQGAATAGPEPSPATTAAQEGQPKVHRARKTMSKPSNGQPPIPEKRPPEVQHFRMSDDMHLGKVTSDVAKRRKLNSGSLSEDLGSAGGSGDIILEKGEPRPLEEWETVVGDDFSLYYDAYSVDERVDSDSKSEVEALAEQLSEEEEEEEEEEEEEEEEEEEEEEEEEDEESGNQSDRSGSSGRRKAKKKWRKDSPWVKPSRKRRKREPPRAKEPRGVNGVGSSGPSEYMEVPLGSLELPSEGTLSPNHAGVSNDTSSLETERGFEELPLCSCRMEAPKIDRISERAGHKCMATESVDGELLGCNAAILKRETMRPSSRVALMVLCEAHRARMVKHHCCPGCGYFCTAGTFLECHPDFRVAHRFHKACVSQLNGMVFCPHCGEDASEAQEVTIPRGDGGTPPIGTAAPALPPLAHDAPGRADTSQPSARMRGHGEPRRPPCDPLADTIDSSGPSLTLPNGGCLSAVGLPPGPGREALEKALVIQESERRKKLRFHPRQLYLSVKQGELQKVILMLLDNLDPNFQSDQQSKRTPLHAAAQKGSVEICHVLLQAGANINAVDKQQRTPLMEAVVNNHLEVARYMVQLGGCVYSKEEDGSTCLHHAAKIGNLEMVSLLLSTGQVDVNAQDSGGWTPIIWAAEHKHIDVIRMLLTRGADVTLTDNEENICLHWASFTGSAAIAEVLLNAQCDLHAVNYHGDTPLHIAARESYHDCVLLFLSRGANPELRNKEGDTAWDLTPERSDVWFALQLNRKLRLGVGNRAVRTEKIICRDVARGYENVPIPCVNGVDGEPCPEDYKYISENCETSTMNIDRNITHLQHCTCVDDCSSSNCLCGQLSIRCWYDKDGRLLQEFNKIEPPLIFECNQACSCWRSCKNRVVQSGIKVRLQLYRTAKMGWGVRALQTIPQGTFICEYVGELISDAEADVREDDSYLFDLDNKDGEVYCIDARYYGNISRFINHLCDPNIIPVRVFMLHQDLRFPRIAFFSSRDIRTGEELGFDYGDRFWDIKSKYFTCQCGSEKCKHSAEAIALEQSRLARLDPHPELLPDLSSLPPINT
pIC50: −log10 of the molar value. Structures can show the parent of a compound that is named as a salt.

Report pIC50 for N[C@@H](CCCN(CCI)C[C@H]1O[C@@H](n2cnc3c(NCc4ccccc4)ncnc32)[C@@H](O)C1O)C(=O)O (stereo partly shown) [Compound 6, hydrochloride] please.
< 4.00

Again, but for Nc1ncnc2c1ncn2[C@@H]1O[C@H](CN(CCI)CC[C@H](N)C(=O)O)C(O)[C@@H]1O (stereo partly shown) [Compound 3, hydrochloride]
< 4.00

Then what about the compound CNc1ncnc2c1ncn2[C@@H]1O[C@H](CN(CCI)CCC[C@H](N)C(=O)O)C(O)[C@@H]1O (stereo partly shown) [Compound 5, hydrochloride] ?
< 4.00

Now consider Nc1ncnc2c1ncn2[C@@H]1O[C@H](CN(CCI)CCC[C@H](N)C(=O)O)C(O)[C@@H]1O (stereo partly shown) [Compound 4, hydrochloride] and answer again.
5.74
